tested on: Fusobacterium nucleatum; test: Inhibition of Fusobacterium nucleatum ATCC 25586 recombinant MGL Y111F mutant expressed in Escherichia coli BL21 (DE3) assessed as decrease in signal intensity by measuring recovery ratio by 19F NMR based competition assay relative to wild type; parameters: concentration or dose not given beside the values
Calls of active or inactive are those of the source. The rule behind the calls is not given here.
Quantity Kind: Activity

Reference set (6 entries):
**Query** Look up Activity of `CC(C)(C)OC(=O)N1CCC(CN)(c2ccccc2F)CC1` and report it.
**Result** Active

**Query** Look up Activity of `CC(C)(C)OC(=O)N1CCC(CN)(c2ccccc2C(F)(F)F)CC1` and report it.
**Result** Active

**Query** Look up Activity of `O=C(O)c1cn(-c2ccc(F)cc2)cn1` and report it.
**Result** Active

**Query** Look up Activity of `O=C(O)c1cncc(OCC(F)(F)F)c1` and report it.
**Result** 50%

**Query** Look up Activity of `CC(C)(C)OC(=O)N1CCC(CN)(Cc2ccc(F)cc2)CC1` and report it.
**Result** inactive

**Query** Look up Activity of `CC(C)(CC(=O)O)c1ccc(C(F)(F)F)cc1` and report it.
**Result** 80%

Would you be so kind as to report Activity for each listed record?
1. CC(C)(Cc1cccc(C(F)(F)F)c1)C(=O)O
2. CC(C)(C)OC(=O)N1CCC(CN)(Cc2ccc(C(F)(F)F)cc2)CC1
3. Cc1ccc2[nH]cc(C(C(=O)O)C(F)(F)F)c2c1 (stereo unspecified)
4. O=C(O)c1ccnc(OC(F)F)c1
5. COCCOc1ccc(C(=O)O)cc1C(F)(F)F
6. CC(C)(C)OC(=O)N1CCC(CN)(Cc2ccccc2C(F)(F)F)CC1

**Result**
["50%", "Active", "80%", "Active", "80%", "Active"]

Would you be so kind as to report Activity for each listed record?
1. Nc1cc(F)c(OCC2CCC2)c(F)c1
2. CCOC(=O)c1nc(-c2ccccc2F)no1
3. O=C(O)c1cn(-c2cccc(F)c2)cn1
4. O=C(O)c1cn(-c2ccccc2F)cn1
5. O=C(O)c1cnc(OCC(F)(F)F)cn1
6. CC(C)(C)OC(=O)N1CCC(C(=O)O)(c2ccc(C(F)(F)F)cc2)CC1

**Result**
1. Active
2. 50%
3. inactive
4. Active
5. Active
6. Active

Would you be so kind as to report Activity for each listed record?
1. CC(C)(C)OC(=O)N1CCC(CN)(Cc2ccccc2F)CC1
2. CC(C)(CC(=O)O)c1ccc(F)cc1
3. O=C(O)c1ccc(OCC(F)(F)F)cn1
4. CC(C)(C)OC(=O)N[C@H]1CC[C@H](N2Cc3cccc(F)c3C2=O)CC1
5. CC(C)(C)OC(=O)N[C@H]1CC[C@H](N2Cc3ccc(F)cc3C2=O)CC1
6. O=C(O)c1ccnc(OC(F)(F)F)c1

**Result**
1: inactive; 2: 80%; 3: 80%; 4: Active; 5: Active; 6: 50%

Would you be so kind as to report Activity for each listed record?
1. O=C(O)c1ccc(OC(F)F)nc1
2. O=C(O)c1cc(OC(F)(F)F)ccn1

**Result**
1: Active; 2: 50%

###

Target: L-methionine gamma-lyase (Fusobacterium nucleatum subsp. nucleatum) (UniProt Q8RDT4)
Sequence (whole entry): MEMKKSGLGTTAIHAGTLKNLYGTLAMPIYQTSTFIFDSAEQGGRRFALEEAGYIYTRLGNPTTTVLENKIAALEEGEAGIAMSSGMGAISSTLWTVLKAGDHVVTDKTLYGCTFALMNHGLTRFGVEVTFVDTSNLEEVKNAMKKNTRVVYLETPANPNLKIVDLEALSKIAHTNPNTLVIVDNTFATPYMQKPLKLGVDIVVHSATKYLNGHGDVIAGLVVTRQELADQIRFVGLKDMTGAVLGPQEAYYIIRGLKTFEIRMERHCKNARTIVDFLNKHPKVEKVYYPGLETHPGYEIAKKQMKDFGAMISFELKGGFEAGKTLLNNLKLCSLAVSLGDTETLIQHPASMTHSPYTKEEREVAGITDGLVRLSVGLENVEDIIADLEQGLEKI
Test: Inhibition of Fusobacterium nucleatum ATCC 25586 recombinant wild type MGL expressed in Escherichia coli BL21 (DE3) assessed as formation of 2-ketobutyrate using L-methionine as substrate by enzymatic assay
Parameters: concentration or dose not given beside the values
Details: concentration not given here
Quantity Kind: inhibition (%)
Numbers only, in %.

**Query** Look up and report inhibition, with L-methionine gamma-lyase (Fusobacterium nucleatum subsp. nucleatum) (UniProt Q8RDT4) as system, for `CC(C)(C)OC(=O)N1CCC(CN)(Cc2ccc(C(F)(F)F)cc2)CC1`
**Result** 78.3

**Query** Look up and report inhibition, with L-methionine gamma-lyase (Fusobacterium nucleatum subsp. nucleatum) (UniProt Q8RDT4) as system, for `O=C(O)c1cc(F)c(OCC2CC2)c(F)c1`
**Result** 9.5

**Query** Look up and report inhibition, with L-methionine gamma-lyase (Fusobacterium nucleatum subsp. nucleatum) (UniProt Q8RDT4) as system, for `O=C(O)c1cc(C(F)(F)F)nn1Cc1ccccc1`
**Result** 14.5

**Query** Look up and report inhibition, with L-methionine gamma-lyase (Fusobacterium nucleatum subsp. nucleatum) (UniProt Q8RDT4) as system, for `CC(C)(C)OC(=O)N1CCC(CN)(c2ccccc2F)CC1`
**Result** 17.2

Would you be so kind as to report inhibition for each listed record?
1. Fc1cccc(-c2nnc3ccc(Br)cn23)c1
2. CCOC(=O)c1nc(-c2ccc(F)cc2)no1
3. O=C(O)c1ccc(OCC(F)(F)F)cn1
4. O=C(O)c1cncc(OCC(F)(F)F)c1

**Result**
1: 7.2; 2: 33.1; 3: 15; 4: 9.1

Would you be so kind as to report inhibition for each listed record?
1. O=C(O)c1cc(OC(F)(F)F)ccn1
2. O=C(O)c1ccc(OC(F)F)nc1
3. COCCOc1ccc(C(=O)O)cc1C(F)(F)F

**Result**
1: -6.8; 2: 12.6; 3: 16.2

// provenance: ChEMBL document CHEMBL4837259
